Source: patent US20080021026A1

Target: recombinant N-terminal GST-tagged human Rho kinase 2 (ROCK2, amino acids 1-552) (Homo sapiens, UniProt O75116)
Construct: ROCK2, amino acids 1-552; purchased Invitrogen Inc. PV3759
Sequence (O75116 1-552): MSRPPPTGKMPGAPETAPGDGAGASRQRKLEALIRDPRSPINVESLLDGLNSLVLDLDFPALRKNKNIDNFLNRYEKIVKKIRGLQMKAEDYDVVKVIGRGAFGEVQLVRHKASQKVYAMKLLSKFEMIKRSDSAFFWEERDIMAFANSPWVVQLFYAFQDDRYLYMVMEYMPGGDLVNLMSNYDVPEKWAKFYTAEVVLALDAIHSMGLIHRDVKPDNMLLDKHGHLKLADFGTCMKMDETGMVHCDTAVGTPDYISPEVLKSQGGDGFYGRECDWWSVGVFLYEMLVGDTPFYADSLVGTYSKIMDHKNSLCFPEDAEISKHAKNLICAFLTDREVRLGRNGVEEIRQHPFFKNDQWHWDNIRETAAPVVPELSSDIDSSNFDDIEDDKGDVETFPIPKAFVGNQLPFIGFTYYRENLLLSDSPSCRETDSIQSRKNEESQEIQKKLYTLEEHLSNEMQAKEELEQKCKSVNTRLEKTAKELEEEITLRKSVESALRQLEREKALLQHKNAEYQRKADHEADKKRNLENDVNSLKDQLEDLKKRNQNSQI
Experiment: In vitro Rho kinase assay (luciferase-based ATP consumption), ROCK2
Assay type: biochemical
Conditions: recombinant GST-tagged human ROCK2, luciferase-based ATP consumption; read-out: ROCK2 IC50

- COMPOUND: "Cc1c(-c2ccnc(N)n2)sc2ccc(Cc3cccc(C(=O)OC(C)C)c3)cc12 [Example 43]"
  IC50: "< 5 µM"
- COMPOUND: "Cc1c(-c2ccnc(N)n2)sc2ccc(C(=O)NC(C)C(C)C)cc12 (stereo not drawn) [Example 349]"
  IC50: "> 5 µM"
- COMPOUND: "Cc1c(-c2ccnc(N)n2)sc2ccc(C(=O)N3CCN(c4ccc(F)cc4F)CC3)cc12 [Example 546]"
  IC50: "> 5 µM"
- COMPOUND: "Cc1cccc(C(=O)NCc2ccc3sc(-c4ccnc(N)n4)c(C)c3c2)c1C [Example 133]"
  IC50: "< 5 µM"
- COMPOUND: "Cc1c(-c2ccnc(N)n2)sc2ccc(CNC(=O)CCc3nc4ccccc4[nH]3)cc12 [Example 244]"
  IC50: "< 5 µM"
- COMPOUND: "COc1cc(C=CC(=O)NCc2ccc3sc(-c4ccnc(N)n4)c(C)c3c2)ccc1O [Example 255]"
  IC50: "< 5 µM"
- COMPOUND: "Cc1c(-c2ccnc(N)n2)sc2ccc(Cc3cccc(C#N)c3)cc12 [Example 40]"
  IC50: "< 5 µM"
- COMPOUND: "Cc1c(-c2ccnc(N)n2)sc2ccc(Nc3cccc(OC(F)(F)F)c3)cc12 [Example 54]"
  IC50: "> 5 µM"
- COMPOUND: "Cc1c(-c2ccnc(N)n2)sc2ccc(Oc3cccc(O)c3)cc12 [Example 82]"
  IC50: "< 5 µM"
- COMPOUND: "COc1cc(C(=O)NCc2ccc3sc(-c4ccnc(N)n4)c(C)c3c2)cc(Cl)n1 [Example 235]"
  IC50: "< 5 µM"
- COMPOUND: "Cc1c(-c2ccnc(N)n2)sc2ccc(C(=O)N3CCN(c4ccc(C(F)(F)F)cn4)CC3)cc12 [Example 568]"
  IC50: "> 5 µM"
- COMPOUND: "COc1ccccc1CCNC(=O)c1ccc2sc(-c3ccnc(N)n3)c(C)c2c1 [Example 424]"
  IC50: "< 5 µM"
